Test system: A549/ATCC
Experiment: NCI-60 antiproliferative screen (SRB)
Assay type: cell-based, human
Conditions: Homo sapiens; 10 µM single dose, 48 h; A549/ATCC (NSCLC); read-out: Growth inhibition (%)
Parameter: inhibition at 10 µM. Scope: all listed entries.
Measured Quantity: inhibition at 10 µM (%)

> print(dat)
                                   molecule    val
1  O=C1Nc2ccccc2C1=Cc1ccc(OCc2ccccn2)cc1 (mixture of isomers)   29.2
2  O=C1Nc2ccccc2C1=Cc1ccc(OCc2cccnc2)cc1 (mixture of isomers)   26.2
3  O=C1Nc2cc(Cl)ccc2C1=Cc1ccc(OCc2ccccn2)cc1 (mixture of isomers)   62.5
4  O=C1Nc2ccc(F)cc2C1=Cc1ccc(OCc2ccccn2)cc1 (mixture of isomers)  -1.04

Just for reference, paper PMC11124822 is where these values come from.
